Target: HOIP (Homo sapiens)
Construct: HOIP (697-1072) DU22629; GST (cleaved yes); host or cells: E. coli BL21
Sequence (Q96EP0 697-1072): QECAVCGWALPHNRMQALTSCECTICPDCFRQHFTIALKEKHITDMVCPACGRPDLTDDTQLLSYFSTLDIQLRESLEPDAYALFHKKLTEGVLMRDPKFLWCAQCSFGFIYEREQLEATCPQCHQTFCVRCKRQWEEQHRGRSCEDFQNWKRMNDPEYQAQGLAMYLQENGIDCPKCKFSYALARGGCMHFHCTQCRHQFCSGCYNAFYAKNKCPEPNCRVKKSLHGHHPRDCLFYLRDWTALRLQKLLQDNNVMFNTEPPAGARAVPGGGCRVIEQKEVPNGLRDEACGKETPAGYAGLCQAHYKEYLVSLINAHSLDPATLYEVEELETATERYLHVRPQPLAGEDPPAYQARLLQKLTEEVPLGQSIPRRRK
Test: MALDI-TOF E2/E3 ligase assay (mono-ubiquitin consumption), UBE1/UBE2L3/HOIP
Format: biochemical
Conditions: HTS single point, 10 μM compound; read-out: Residual Activity (%), UBE1/UBE2L3/HOIP
// NB: equality with 50% counts as false; only remaining activity at 10 µM strictly below is true

molecule: OC(Cn1cncn1)(Cn1cncn1)c1ccc(F)cc1F
label_class: true
--
molecule: Cc1ccnc2c1NC(=O)c1cccnc1N2C1CC1
label_class: false
--
molecule: Oc1ccc(/C=C/c2cc(O)cc(O)c2)cc1
label_class: false
--
molecule: O=c1c2ccccc2[se]n1-c1ccccc1
label_class: true
--
molecule: CCCCN1CCCCC1C(=O)Nc1c(C)cccc1C (centres unmarked)
label_class: false
--
molecule: O=C(NCCN1CCOCC1)c1ccc(Cl)cc1 [moclobemide]
label_class: true

###

target: HOIP (Homo sapiens, UniProt Q96EP0); construct: HOIP (697-1072) DU22629; GST (cleaved yes); host or cells: E. coli BL21; assay: MALDI-TOF E2/E3 ligase assay (mono-ubiquitin consumption), UBE1/UBE2L3/HOIP; assay type: biochemical; conditions: UBE1/UBE2L3/HOIP; compounds pre-incubated 30 min, then ubiquitin 30 or 40 min; four-parameter fit; read-out: IC50 against HOIP

smiles_repr: N#CSc1cc(SC#N)c(N)nc1N
IC50: 200 nM
--
smiles_repr: Cc1ccc(S(=O)(=O)/C=C/C#N)cc1
IC50: 2900 nM
--
smiles_repr: CCOC(=O)c1ccc(N2NC(=O)/C(=C/c3ccc([N+](=O)[O-])o3)C2=O)cc1
IC50: 5700 nM

###

Here, each record is paired with measured pIC50 data.
target: ITCH (Homo sapiens); construct: ITCH Q96J02 - GST full length; host or cells: E. coli BL21; test: MALDI-TOF E2/E3 ligase assay (mono-ubiquitin consumption), UBE1/UBE2D1/ITCH; type: biochemical
Sequence (Q96J02 whole entry): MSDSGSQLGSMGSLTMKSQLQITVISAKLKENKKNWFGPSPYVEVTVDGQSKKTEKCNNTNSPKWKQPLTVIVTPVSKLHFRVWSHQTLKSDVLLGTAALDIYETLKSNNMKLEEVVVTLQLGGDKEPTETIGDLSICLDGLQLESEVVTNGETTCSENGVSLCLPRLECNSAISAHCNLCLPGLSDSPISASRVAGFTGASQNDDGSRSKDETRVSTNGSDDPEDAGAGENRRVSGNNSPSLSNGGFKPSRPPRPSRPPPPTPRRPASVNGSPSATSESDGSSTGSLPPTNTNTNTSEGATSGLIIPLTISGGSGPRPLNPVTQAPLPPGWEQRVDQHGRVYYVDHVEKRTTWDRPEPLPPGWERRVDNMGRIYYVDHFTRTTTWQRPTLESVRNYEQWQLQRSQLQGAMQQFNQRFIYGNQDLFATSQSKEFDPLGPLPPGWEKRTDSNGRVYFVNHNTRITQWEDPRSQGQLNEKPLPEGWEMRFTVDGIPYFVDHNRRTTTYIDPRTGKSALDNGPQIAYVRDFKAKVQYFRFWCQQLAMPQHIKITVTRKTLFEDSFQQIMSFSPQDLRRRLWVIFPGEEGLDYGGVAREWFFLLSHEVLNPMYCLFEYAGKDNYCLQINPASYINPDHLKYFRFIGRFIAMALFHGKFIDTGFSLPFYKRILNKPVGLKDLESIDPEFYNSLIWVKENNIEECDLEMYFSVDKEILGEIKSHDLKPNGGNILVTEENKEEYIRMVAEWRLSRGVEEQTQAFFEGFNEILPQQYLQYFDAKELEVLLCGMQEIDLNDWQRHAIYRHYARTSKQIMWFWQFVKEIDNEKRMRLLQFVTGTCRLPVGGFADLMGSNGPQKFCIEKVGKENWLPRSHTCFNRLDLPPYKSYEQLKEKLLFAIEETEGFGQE
pIC50: −log10 of the molar value.
property_label: pIC50

compound: Cn1c(CCCC(=O)O)nc2cc(N(CCCl)CCCl)ccc21 [bendamustine]
value: 4.11
//
compound: CN1C(=O)[C@]23CC4=CC=C[C@H](O)[C@H]4N2C(=O)[C@@]1(CO)SS3 [Gliotoxin]
value: 4.52

###

molecular target: MDM2 (Homo sapiens, UniProt Q00987); assay: MALDI-TOF E2/E3 ligase assay (mono-ubiquitin consumption), UBE1/UBE2D1/MDM2; format: biochemical
Sequence (Q00987 whole entry): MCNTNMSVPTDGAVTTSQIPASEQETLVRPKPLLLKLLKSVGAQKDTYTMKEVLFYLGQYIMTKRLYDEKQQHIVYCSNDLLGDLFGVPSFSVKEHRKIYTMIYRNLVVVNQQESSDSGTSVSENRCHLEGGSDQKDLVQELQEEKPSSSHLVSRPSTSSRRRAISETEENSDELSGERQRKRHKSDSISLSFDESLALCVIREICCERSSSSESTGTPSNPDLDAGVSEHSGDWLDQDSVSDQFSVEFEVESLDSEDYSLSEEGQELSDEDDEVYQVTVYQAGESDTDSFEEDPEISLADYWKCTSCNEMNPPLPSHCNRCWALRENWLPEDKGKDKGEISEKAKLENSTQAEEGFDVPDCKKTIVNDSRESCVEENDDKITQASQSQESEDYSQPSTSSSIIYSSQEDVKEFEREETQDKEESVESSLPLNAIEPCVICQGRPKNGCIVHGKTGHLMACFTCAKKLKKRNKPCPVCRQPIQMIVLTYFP
pIC50: −log10 of the molar value.
This section presents molecules with their documented pIC50 values.
property_label: pIC50

smiles_repr: CN1C(=O)[C@]23CC4=CC=C[C@H](O)[C@H]4N2C(=O)[C@@]1(CO)SS3
property_label: pIC50
value: 6.30
--
smiles_repr: Cn1c(CCCC(=O)O)nc2cc(N(CCCl)CCCl)ccc21
property_label: pIC50
value: 3.94

From: paper PMC6162346
